Values compiled from patent US8912219B2.

Reported pIC50 for target or system RORc ligand binding domain (Homo sapiens (Human), UniProt P51449), by entry.
pIC50 is defined as minus the log10 of a concentration measured in mol/L.

These recorded examples may help you get a feel for the data.
Chemical String: CC(=O)N1CCN(c2ccc(CN(C3CCC3)S(=O)(=O)Oc3ccccc3)c(F)c2)CC1
pIC50: 8.15
--
Chemical String: CS(=O)(=O)N1CCC(Oc2ccc(N3CCN(Cc4ccc(F)cc4)S3(=O)=O)cc2)CC1
pIC50: 5.19

Find the measured pIC50 of CC(C)CN(Cc1ccc(F)cc1)S(=O)(=O)Nc1ccc(OC2CCN(S(C)(=O)=O)CC2)cc1 and report it.
6.64

Find the measured pIC50 of CC(=O)N1CCN(c2ccc(CN(C3CCC3)S(=O)(=O)N(C)c3ccccc3)c(F)c2)CC1 and report it.
7.55
